assay: Half-life was measured in dogs after an oral dose of 10 uM/kg; format: ADME, organism-based, Canis lupus familiaris; conditions: dog, in vivo

compound: CCc1c(C#N)cc2ccccc2c1C(=O)N(C)C[C@@H](CCN1CCC(c2ccccc2[S@+](C)[O-])CC1)c1ccc(Cl)c(Cl)c1 (stereo in doubt; 3)
half-life: 5.9 h

====

test system: Substance-P receptor (Oryctolagus cuniculus); experiment: In vitro binding affinity towards Tachykinin receptor 1 was determined using rabbit pulmonary artery tissues
// reported pKB for each item listed

structure-notation: CCCc1c(C#N)cc2ccccc2c1C(=O)N(C)C[C@@H](CCN1CCC(c2ccccc2[S@+](C)[O-])CC1)c1ccc(Cl)c(Cl)c1
system-tested: Substance-P receptor (Oryctolagus cuniculus)
pKB: 7.8

structure-notation: Cc1c(C#N)cc2ccccc2c1C(=O)N(C)C[C@@H](CCN1CCC(c2ccccc2[S@+](C)[O-])CC1)c1ccc(Cl)c(Cl)c1
system-tested: Substance-P receptor (Oryctolagus cuniculus)
pKB: 9.06

structure-notation: CN(C[C@@H](CCN1CCC(c2ccccc2[S@+](C)[O-])CC1)c1ccc(Cl)c(Cl)c1)C(=O)c1c(-c2ccccc2)c(C#N)cc2ccccc12
system-tested: Substance-P receptor (Oryctolagus cuniculus)
pKB: 7.39

structure-notation: CC(C)Cc1c(C#N)cc2ccccc2c1C(=O)N(C)C[C@@H](CCN1CCC(c2ccccc2[S@+](C)[O-])CC1)c1ccc(Cl)c(Cl)c1
system-tested: Substance-P receptor (Oryctolagus cuniculus)
pKB: 7.23

====

Here's what we have: pKi numbers for Substance-P receptor (Homo sapiens, UniProt P25103).
pKi: −log10 of the molar value.
assay-metric: pKi

compound: CCc1c(C#N)cc2ccccc2c1C(=O)N(C)C[C@@H](CCN1CCC(c2ccccc2[S@+](C)[O-])CC1)c1ccc(Cl)c(Cl)c1 (stereo in doubt; form 3)
system-tested: Substance-P receptor (Homo sapiens, UniProt P25103)
Sequence (P25103 whole entry): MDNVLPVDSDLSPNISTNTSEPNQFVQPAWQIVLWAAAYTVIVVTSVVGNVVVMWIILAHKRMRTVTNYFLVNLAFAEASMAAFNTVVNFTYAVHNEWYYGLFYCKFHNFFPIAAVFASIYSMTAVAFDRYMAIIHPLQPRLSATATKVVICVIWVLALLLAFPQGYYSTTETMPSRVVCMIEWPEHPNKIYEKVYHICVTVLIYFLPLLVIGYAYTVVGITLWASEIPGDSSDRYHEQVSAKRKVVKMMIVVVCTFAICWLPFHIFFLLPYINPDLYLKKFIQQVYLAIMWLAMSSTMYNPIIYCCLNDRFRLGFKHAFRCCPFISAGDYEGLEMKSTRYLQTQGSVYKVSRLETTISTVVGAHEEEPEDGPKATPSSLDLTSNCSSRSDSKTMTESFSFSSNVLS
observed-measurement: 8.53
//
compound: CCc1c(C#N)cc2ccccc2c1C(=O)N(C)C[C@@H](CCN1CCC(c2ccccc2[S@+](C)[O-])CC1)c1ccc(Cl)c(Cl)c1 (stereo in doubt; form 4)
system-tested: Substance-P receptor (Homo sapiens, UniProt P25103)
observed-measurement: 9.40

====

// reported pKB for each item listed
Target: Substance-K receptor (Oryctolagus cuniculus)
Sequence (whole entry): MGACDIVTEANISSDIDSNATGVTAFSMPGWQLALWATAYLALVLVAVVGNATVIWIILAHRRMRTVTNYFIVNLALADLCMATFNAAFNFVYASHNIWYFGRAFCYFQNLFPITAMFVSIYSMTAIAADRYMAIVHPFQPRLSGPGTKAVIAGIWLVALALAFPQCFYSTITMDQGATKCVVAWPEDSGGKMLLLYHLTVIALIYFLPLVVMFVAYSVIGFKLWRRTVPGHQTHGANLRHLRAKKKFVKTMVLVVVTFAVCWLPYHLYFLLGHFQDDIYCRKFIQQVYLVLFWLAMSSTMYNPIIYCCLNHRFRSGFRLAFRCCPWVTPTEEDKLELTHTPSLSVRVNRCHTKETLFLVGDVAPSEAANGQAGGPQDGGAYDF
Assay: In vitro binding affinity towards Tachykinin receptor 2 using rabbit pulmonary artery tissues

molecule: CCc1c(C#N)cc2ccccc2c1C(=O)N(C)C[C@@H](CCN1CCC(c2ccccc2[S@+](C)[O-])CC1)c1ccc(Cl)c(Cl)c1 (stereo in doubt; form 1)
pKB: 7.11

molecule: CN(C[C@@H](CCN1CCC(c2ccccc2[S@+](C)[O-])CC1)c1ccc(Cl)c(Cl)c1)C(=O)c1c(-c2ccccc2)c(C#N)cc2ccccc12
pKB: 7.27

molecule: CCc1c(C#N)cc2ccccc2c1C(=O)N(C)C[C@@H](CCN1CCC(c2ccccc2[S@+](C)[O-])CC1)c1ccc(Cl)c(Cl)c1 (stereo in doubt; 3)
pKB: 7.31

molecule: CCc1c(C#N)cc2ccccc2c1C(=O)N(C)C[C@@H](CCN1CCC(c2ccccc2[S@+](C)[O-])CC1)c1ccc(Cl)c(Cl)c1 (stereo in doubt; form 2)
pKB: 6.25

molecule: Cc1c(C#N)cc2ccccc2c1C(=O)N(C)C[C@@H](CCN1CCC(c2ccccc2[S@+](C)[O-])CC1)c1ccc(Cl)c(Cl)c1
pKB: 7.1

molecule: CN(C[C@@H](CCN1CCC(c2ccccc2[S@+](C)[O-])CC1)c1ccc(Cl)c(Cl)c1)C(=O)c1cc(C#N)cc2ccccc12
pKB: 8.3

molecule: CC(C)Cc1c(C#N)cc2ccccc2c1C(=O)N(C)C[C@@H](CCN1CCC(c2ccccc2[S@+](C)[O-])CC1)c1ccc(Cl)c(Cl)c1
pKB: 6.35

molecule: CCc1c(C#N)cc2ccccc2c1C(=O)N(C)C[C@@H](CCN1CCC(c2ccccc2[S@+](C)[O-])CC1)c1ccc(Cl)c(Cl)c1 (stereo in doubt; form 3)
pKB: 6.83

molecule: CCCc1c(C#N)cc2ccccc2c1C(=O)N(C)C[C@@H](CCN1CCC(c2ccccc2[S@+](C)[O-])CC1)c1ccc(Cl)c(Cl)c1
pKB: 6.72

====

Biological target: Substance-K receptor (Homo sapiens, UniProt P21452)
Sequence (P21452 whole entry): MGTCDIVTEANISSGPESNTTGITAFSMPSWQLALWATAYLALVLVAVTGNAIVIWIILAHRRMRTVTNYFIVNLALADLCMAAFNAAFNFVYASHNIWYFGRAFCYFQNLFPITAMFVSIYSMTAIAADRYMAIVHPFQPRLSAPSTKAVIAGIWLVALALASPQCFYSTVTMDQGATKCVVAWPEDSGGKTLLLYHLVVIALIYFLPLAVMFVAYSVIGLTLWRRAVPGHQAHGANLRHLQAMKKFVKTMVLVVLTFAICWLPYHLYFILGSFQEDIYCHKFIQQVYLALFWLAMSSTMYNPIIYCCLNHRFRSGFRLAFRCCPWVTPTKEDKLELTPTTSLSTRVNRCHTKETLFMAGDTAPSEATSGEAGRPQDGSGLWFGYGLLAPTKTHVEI
Assay: In vitro binding affinity towards human Tachykinin receptor 2 was determined by using [125I]NKA as a radioligand

compound: CCc1c(C#N)cc2ccccc2c1C(=O)N(C)C[C@@H](CCN1CCC(c2ccccc2[S@+](C)[O-])CC1)c1ccc(Cl)c(Cl)c1 (stereo in doubt; form 1)
system-tested: Substance-K receptor (Homo sapiens, UniProt P21452)
unit-of-measurement: nM
Ki: 23
